- targetDesc: BRM (Homo sapiens)
- Sequence (P51531 whole entry): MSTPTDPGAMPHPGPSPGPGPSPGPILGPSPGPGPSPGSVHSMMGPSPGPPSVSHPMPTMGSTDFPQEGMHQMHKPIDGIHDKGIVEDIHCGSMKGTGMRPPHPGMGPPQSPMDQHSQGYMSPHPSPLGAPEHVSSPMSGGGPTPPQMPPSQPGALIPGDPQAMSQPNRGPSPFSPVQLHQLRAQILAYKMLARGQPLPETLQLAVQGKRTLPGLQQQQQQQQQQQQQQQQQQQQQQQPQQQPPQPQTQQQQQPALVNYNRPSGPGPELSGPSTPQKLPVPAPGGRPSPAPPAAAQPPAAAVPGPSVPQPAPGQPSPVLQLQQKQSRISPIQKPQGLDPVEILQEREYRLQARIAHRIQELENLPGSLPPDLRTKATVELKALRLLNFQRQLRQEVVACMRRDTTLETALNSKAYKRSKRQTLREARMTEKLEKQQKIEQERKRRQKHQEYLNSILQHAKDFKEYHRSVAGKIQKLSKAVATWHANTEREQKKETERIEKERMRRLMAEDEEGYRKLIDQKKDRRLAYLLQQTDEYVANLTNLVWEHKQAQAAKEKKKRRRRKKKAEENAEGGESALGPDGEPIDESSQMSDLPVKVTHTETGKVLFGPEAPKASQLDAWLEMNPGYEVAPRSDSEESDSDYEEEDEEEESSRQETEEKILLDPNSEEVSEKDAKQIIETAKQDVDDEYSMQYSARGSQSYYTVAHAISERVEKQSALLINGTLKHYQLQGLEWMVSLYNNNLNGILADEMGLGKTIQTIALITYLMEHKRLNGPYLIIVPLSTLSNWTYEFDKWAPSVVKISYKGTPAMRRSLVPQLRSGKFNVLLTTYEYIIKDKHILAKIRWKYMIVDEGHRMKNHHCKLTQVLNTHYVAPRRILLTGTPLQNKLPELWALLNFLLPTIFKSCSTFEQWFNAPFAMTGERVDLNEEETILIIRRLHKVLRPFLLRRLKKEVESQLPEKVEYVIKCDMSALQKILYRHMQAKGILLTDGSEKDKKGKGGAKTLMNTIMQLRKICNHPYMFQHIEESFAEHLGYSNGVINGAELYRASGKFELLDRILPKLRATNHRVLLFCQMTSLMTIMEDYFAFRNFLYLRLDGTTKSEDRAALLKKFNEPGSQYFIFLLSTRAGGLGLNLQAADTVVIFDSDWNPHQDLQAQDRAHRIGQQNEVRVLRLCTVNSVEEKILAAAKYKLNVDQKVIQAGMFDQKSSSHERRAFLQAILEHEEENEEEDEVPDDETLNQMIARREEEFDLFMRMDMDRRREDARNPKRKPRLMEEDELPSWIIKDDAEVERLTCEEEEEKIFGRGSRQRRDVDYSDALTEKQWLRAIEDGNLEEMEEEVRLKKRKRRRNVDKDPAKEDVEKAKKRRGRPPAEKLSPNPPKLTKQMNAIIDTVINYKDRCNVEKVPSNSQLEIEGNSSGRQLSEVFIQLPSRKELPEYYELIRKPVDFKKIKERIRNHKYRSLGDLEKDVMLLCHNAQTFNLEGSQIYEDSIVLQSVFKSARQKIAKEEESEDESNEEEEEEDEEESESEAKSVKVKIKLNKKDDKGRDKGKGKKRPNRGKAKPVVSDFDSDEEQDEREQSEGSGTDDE
# strict inequality: IC50 < 6 nM yields True, everything else yields False

Some solved cases for reference:
Query string: Input `O=C(NCc1cc2nc(N3CCOc4cc(C#CC5CC5)cnc43)ccc2cn1)c1cc(F)c2c(c1)S(=O)(=O)[C@@H](F)COC2` ; condition: IC50 strictly below 6 nM. Does it hold?
Result string: False

Query string: Identify whether the compound `COc1nc(C(F)F)ccc1-c1ccc2cnc(CNC(=O)c3cc(F)c4c(c3)S(=O)(=O)[C@@H](F)COC4)cc2n1` records IC50 below 6 nM.
Result string: True

Query string: Item `COc1nc(CC(F)F)ccc1-c1ccc2cnc(CNC(=O)c3cc(F)c4c(c3)S(=O)(=O)[C@@H](F)CCO4)cc2n1` : IC50 beneath 6 nM, strictly?
Result string: False

Query string: In plain terms, does `Cc1cc(C(=O)NCc2cc3nc(N4CCOc5cc(N6CC[C@H]6C)cnc54)ccc3cn2)cc2c1COC[C@H](F)S2(=O)=O` come in under 6 nM for IC50?
Result string: True

Query string: Quick check: does `O=C(NCc1cc2nc(-c3cccc(C4CC4)n3)ccc2cn1)c1cc(Cl)c2c(c1)S(=O)(=O)[C@@H](F)COC2` have IC50 under 6 nM?
Result string: False

Query string: Dear colleague, could you confirm whether IC50 of `CN(C)c1ccnc2c1OCCN2c1ccc2cnc(CNC(=O)c3cc(F)c4c(c3)S(=O)(=O)[C@@H](F)CCO4)cc2n1` falls below 6 nM? Thanks.
Result string: False

Query string: Consider the compound `O=C(NCc1cc2nc(N3CCCc4c(OC5CC5)ncc(F)c43)ccc2cn1)c1cc(F)c2c(c1)S(=O)(=O)[C@@H](F)CCO2` . Is its IC50 strictly less than 6 nM?
Result string: False

Query string: Is 6 nM strictly greater than the compound's reported IC50? compound: `O=C(NCc1cc2nc(N3CCOc4ccc(N5CCC(F)(F)C5)nc43)ccc2cn1)c1cc(F)c2c(c1)S(=O)(=O)[C@@H](F)CCO2`
Result string: True

Query string: Just wondering, is IC50 of `O=C(NCc1cc2nc(N3CCOc4ccc(N5CC[C@@H](F)C5)nc43)ccc2cn1)c1cc(F)c2c(c1)S(=O)(=O)[C@@H](F)CCO2` below 6 nM?
Result string: True

Query string: Identify whether the compound `C[C@@H]1CN(c2cncc(-c3ccc4cnc(CNC(=O)c5cc(F)c6c(c5)S(=O)(=O)[C@@H](F)CCO6)cc4c3)n2)C[C@H](C)O1` records IC50 below 6 nM.
Result string: True

Next:
Query string: Is IC50 strictly under 6 nM for the entry `Cc1cc(C(=O)NCc2cc3nc(-c4ccc(OC(F)F)c(C5CC5)n4)ccc3cn2)cc2c1OCC[C@H](F)S2(=O)=O` ?
Result string: False

Query string: Below 6 nM on IC50? Entry `COc1nc([C@H](C)F)ccc1-c1ccc2cnc(CNC(=O)c3cc(F)c4c(c3)S(=O)(=O)[C@@H](F)CCO4)cc2n1`
Result string: True

Query string: Report whether reported IC50 is lower than 6 nM (strictly) for `O=C(NCc1cc2nc(N3CCOc4cc(N5CC(CF)C5)cnc43)ccc2cn1)c1cc(F)c2c(c1)S(=O)(=O)[C@@H](F)CCO2`
Result string: False
